Data provenance: patent EP2197279B1

test system: human plasma proteins; experiment: Percent of free camptothecin analogs in human plasma (dialysis, HPLC); type: in vitro ADME; conditions: 100 nM Compound Concentrations

Compound: CCc1c2c(nc3ccc(O)cc13)-c1cc3c(c(=O)n1C2)COC(=O)[C@]3(O)CC [SN-38, 10-hydroxy-7-ethyl camptothecin]
Tested Target: human plasma proteins
Percent of Free CPTs / %: 15

Compound: CC[C@@]1(O)C(=O)OCc2c1cc1n(c2=O)Cc2c-1nc1ccc(OC)cc1c2CC[Si](C)(C)C
Tested Target: human plasma proteins
Percent of Free CPTs / %: 3.5

Compound: CC[C@@]1(O)C(=O)OCc2c1cc1n(c2=O)Cc2c-1nc1ccc(OC(=O)N(C)C)cc1c2CC[Si](C)(C)C
Tested Target: human plasma proteins
Percent of Free CPTs / %: 6.4

Compound: CC[C@@]1(O)C(=O)OCc2c1cc1n(c2=O)Cc2c-1nc1ccc(OCCCO)cc1c2CC[Si](C)(C)C
Tested Target: human plasma proteins
Percent of Free CPTs / %: 6.8

Compound: CC[C@@]1(O)C(=O)OCc2c1cc1n(c2=O)Cc2c-1nc1ccccc1c2CC[Si](C)(C)C
Tested Target: human plasma proteins
Percent of Free CPTs / %: 1

Compound: CC[C@@]1(O)C(=O)OCc2c1cc1n(c2=O)Cc2cc3c(CN(C)C)c(O)ccc3nc2-1
Tested Target: human plasma proteins
Percent of Free CPTs / %: 100

Compound: CC[C@@]1(O)C(=O)OCc2c1cc1n(c2=O)Cc2c-1nc1ccc(OCCOC)cc1c2CC[Si](C)(C)C
Tested Target: human plasma proteins
Percent of Free CPTs / %: 6

Compound: CC[C@@]1(O)C(=O)OCc2c1cc1n(c2=O)Cc2c-1nc1ccc(OCC(N)=O)cc1c2CC[Si](C)(C)C
Tested Target: human plasma proteins
Percent of Free CPTs / %: 25

Compound: CC[C@@]1(O)C(=O)OCc2c1cc1n(c2=O)Cc2cc3ccccc3nc2-1
Tested Target: human plasma proteins
Percent of Free CPTs / %: 0
